- System: HCT-29
- Experiment description: Cytotoxicity against human HCT29 cells after 4 days by MTT assay
- Type: functional, cell-based
- Experimental parameters: HCT-29, 96 h
So I've got a bunch of compounds here, and I need their pIC50 values.
One number for each entry, as −log10 of the molar value.

Below, each entry is followed by its recorded pIC50 result.
O=C(c1ccc(-c2nc3ccccc3c(=O)[nH]2)cc1)N1CCN(S(=O)(=O)c2cccs2)CC1 | 4.80
O=C(c1ccc(-c2nc3ccccc3c(=O)[nH]2)cc1)N1CCN(S(=O)(=O)c2ccccc2)CC1 | 4.90
COc1ccc(S(=O)(=O)N2CCN(C(=O)c3ccc(-c4nc5ccccc5c(=O)n4C)cc3)CC2)cc1 | 4.59
O=C(c1ccc(-c2nc3ccccc3c(=O)[nH]2)cc1)N1CCN(S(=O)(=O)c2cccc3ccccc23)CC1 | 4.94
O=C(c1ccc(-c2nc3ccccc3c(=O)[nH]2)cc1)N1CCN(S(=O)(=O)c2ccc3ccccc3c2)CC1 | 4.78
CC(C)(C)OC(=O)N1CCN(C(=O)c2ccc(-c3nc4ccccc4c(=O)[nH]3)cc2)CC1 | 4.68
Cc1ccc(CS(=O)(=O)N2CCN(C(=O)c3ccc(-c4nc5ccccc5c(=O)[nH]4)cc3)CC2)cc1 | 4.71
Cn1c(-c2ccc(C(=O)N3CCN(S(=O)(=O)c4ccccc4)CC3)cc2)nc2ccccc2c1=O | 4.88
COc1ccc(S(=O)(=O)N2CCN(C(=O)c3ccc(-c4nc5ccccc5c(=O)[nH]4)cc3)CC2)cc1 | 4.67
Cc1ccc(S(=O)(=O)N2CCN(C(=O)c3ccc(-c4nc5ccccc5c(=O)[nH]4)cc3)CC2)cc1 | 4.98

Return reported pIC50 values for all items listed beneath this line.
1. CCCCS(=O)(=O)N1CCN(C(=O)c2ccc(-c3nc4ccccc4c(=O)[nH]3)cc2)CC1
2. O=C(c1ccc(-c2nc3ccccc3c(=O)[nH]2)cc1)N1CCN(S(=O)(=O)Cc2ccc(Cl)cc2)CC1
3. COc1cccc2c1C(=O)c1c(O)c3c(c(O)c1C2=O)C[C@@](O)(C(=O)CO)C[C@@H]3O[C@H]1C[C@H](N)[C@H](O)[C@H](C)O1
4. CC(C)c1ccc(S(=O)(=O)N2CCN(C(=O)c3ccc(-c4nc5ccccc5c(=O)[nH]4)cc3)CC2)cc1

output:
1: 4.99; 2: 4.90; 3: 5.60; 4: 5.05

---

So I've got a bunch of molecules here, and I need their pIC50 values.
- Test system: MDA-MB-231
- Experiment description: Cytotoxicity against human MDA-MB-231 cells after 4 days by MTT assay
- Type: functional, cell-based
- Experimental parameters: MDA-MB-231, 96 h
Give bare numbers, as −log10 of the molar value.

O=C(c1ccc(-c2nc3ccccc3c(=O)n2Cc2ccccc2)cc1)N1CCN(S(=O)(=O)c2ccccc2)CC1 | 4.71

Return reported pIC50 values for all items listed beneath this line.
1. O=C(c1ccc(-c2nc3ccccc3c(=O)[nH]2)cc1)N1CCN(S(=O)(=O)c2cccc3ccccc23)CC1
2. CC(C)(C)OC(=O)N1CCN(C(=O)c2ccc(-c3nc4ccccc4c(=O)[nH]3)cc2)CC1
3. COc1ccc(S(=O)(=O)N2CCN(C(=O)c3ccc(-c4nc5ccccc5c(=O)[nH]4)cc3)CC2)cc1
4. O=C(c1ccc(-c2nc3ccccc3c(=O)[nH]2)cc1)N1CCN(S(=O)(=O)C2CCCC2)CC1

output:
1: 4.65; 2: 5.07; 3: 5.29; 4: 4.83

---

- Tested on: HeLa
- Experiment description: Cytotoxicity against human HeLa cells after 4 days by MTT assay
- Format: functional, cell-based
- Experimental parameters: 96 h
Rule for this label: Criterion met means IC50 is less than 10 µM; Criterion not met means IC50 is at least 10 µM.

CC(C)c1ccc(S(=O)(=O)N2CCN(C(=O)c3ccc(-c4nc5ccccc5c(=O)[nH]4)cc3)CC2)cc1 | Criterion not met

input: State whether 10 µM exceeds IC50 recorded for `Cc1ccc(S(=O)(=O)N2CCN(C(=O)c3ccc(-c4nc5ccccc5c(=O)[nH]4)cc3)CC2)cc1` .
output: Criterion not met

input: Moving on to `Cn1c(-c2ccc(C(=O)N3CCN(C(=O)OC(C)(C)C)CC3)cc2)nc2ccccc2c1=O`
output: Criterion not met

input: Moving on to `O=C(c1ccc(-c2nc3ccccc3c(=O)[nH]2)cc1)N1CCN(S(=O)(=O)c2ccc(C(F)(F)F)cc2)CC1`
output: Criterion not met

input: Moving on to `O=C(c1ccc(-c2nc3ccccc3c(=O)[nH]2)cc1)N1CCN(S(=O)(=O)C2CC2)CC1`
output: Criterion not met

input: Moving on to `O=C(c1ccc(-c2nc3ccccc3c(=O)[nH]2)cc1)N1CCNCC1`
output: Criterion not met

input: Moving on to `O=C(c1ccc(-c2nc3ccccc3c(=O)n2Cc2ccccc2)cc1)N1CCN(S(=O)(=O)c2ccccc2)CC1`
output: Criterion not met

input: Moving on to `O=C(c1ccc(-c2nc3ccccc3c(=O)[nH]2)cc1)N1CCN(S(=O)(=O)Cc2ccccc2)CC1`
output: Criterion met

input: Moving on to `O=C(c1ccc(-c2nc3ccccc3c(=O)[nH]2)cc1)N1CCN(S(=O)(=O)c2cccc3ccccc23)CC1`
output: Criterion not met

input: Moving on to `O=C(c1ccc(-c2nc3ccccc3c(=O)[nH]2)cc1)N1CCN(S(=O)(=O)c2ccccc2C(F)(F)F)CC1`
output: Criterion met

input: Moving on to `COc1ccc(S(=O)(=O)N2CCN(C(=O)c3ccc(-c4nc5ccccc5c(=O)n4C)cc3)CC2)cc1`
output: Criterion not met

input: Moving on to `Cc1ccc(CS(=O)(=O)N2CCN(C(=O)c3ccc(-c4nc5ccccc5c(=O)[nH]4)cc3)CC2)cc1`
output: Criterion met

input: Moving on to `O=C(c1ccc(-c2nc3ccccc3c(=O)[nH]2)cc1)N1CCN(S(=O)(=O)c2ccc3ccccc3c2)CC1`
output: Criterion not met

input: Moving on to `CC(C)(C)OC(=O)N1CCN(C(=O)c2ccc(-c3nc4ccccc4c(=O)n3Cc3ccccc3)cc2)CC1`
output: Criterion not met

input: Moving on to `CC(C)(C)OC(=O)N1CCN(C(=O)c2ccc(-c3nc4ccccc4c(=O)[nH]3)cc2)CC1`
output: Criterion not met

input: Moving on to `O=C(c1ccc(-c2nc3ccccc3c(=O)[nH]2)cc1)N1CCN(S(=O)(=O)c2cccc3cccnc23)CC1`
output: Criterion not met

input: Moving on to `O=C(c1ccc(-c2nc3ccccc3c(=O)[nH]2)cc1)N1CCN(S(=O)(=O)c2ccc([N+](=O)[O-])cc2)CC1`
output: Criterion not met

input: Moving on to `O=C(c1ccc(-c2nc3ccccc3c(=O)[nH]2)cc1)N1CCN(S(=O)(=O)C2CCCC2)CC1`
output: Criterion not met

---

- Test system: HeLa
- Experiment description: Cytotoxicity against human HeLa cells after 4 days by MTT assay
- Type: functional, cell-based
- Experimental parameters: 96 h
Reported metric: IC50 (µM)
Numbers only, in µM.

Below, each entry is followed by its recorded IC50 result.
CCCCS(=O)(=O)N1CCN(C(=O)c2ccc(-c3nc4ccccc4c(=O)[nH]3)cc2)CC1 | 17.3
O=C(c1ccc(-c2nc3ccccc3c(=O)[nH]2)cc1)N1CCN(S(=O)(=O)c2ccc(F)cc2)CC1 | 35.4
O=C(c1ccc(-c2nc3ccccc3c(=O)[nH]2)cc1)N1CCN(S(=O)(=O)c2cccc(C(F)(F)F)c2)CC1 | 9.3
COc1ccc(S(=O)(=O)N2CCN(C(=O)c3ccc(-c4nc5ccccc5c(=O)n4Cc4ccccc4)cc3)CC2)cc1 | 34.2
COc1ccc(Cn2c(-c3ccc(C(=O)N4CCN(S(=O)(=O)c5ccc(OC)cc5)CC4)cc3)nc3ccccc3c2=O)cc1 | 16.5

# evaluate next
input: What value of IC50 has been recorded for this entry: `O=C(c1ccc(-c2nc3ccccc3c(=O)[nH]2)cc1)N1CCN(S(=O)(=O)Cc2ccc(Cl)cc2)CC1`
output: 4.4

---

- Test system: HCT-29
- Experiment description: Cytotoxicity against human HCT29 cells after 4 days by MTT assay
- Assay type: functional, cell-based
- Experimental parameters: HCT-29, 96 h
Reported metric: pIC50
One number for each entry, as −log10 of the molar value.

O=C(c1ccc(-c2nc3ccccc3c(=O)[nH]2)cc1)N1CCN(S(=O)(=O)c2ccc(F)cc2)CC1 | 4.95

input: What value of pIC50 has been recorded for this entry: `O=C(c1ccc(-c2nc3ccccc3c(=O)[nH]2)cc1)N1CCN(S(=O)(=O)c2ccc(C(F)(F)F)cc2)CC1`
output: 4.67

---

- System: MDA-MB-231
- Experiment description: Cytotoxicity against human MDA-MB-231 cells after 4 days by MTT assay
- Format: functional, cell-based
- Experimental parameters: MDA-MB-231, 96 h
Reported metric: IC50 (µM)
Give bare numbers, in µM.

Below, each entry is followed by its recorded IC50 result.
CS(=O)(=O)N1CCN(C(=O)c2ccc(-c3nc4ccccc4c(=O)[nH]3)cc2)CC1 | 6.4
O=C(c1ccc(-c2nc3ccccc3c(=O)[nH]2)cc1)N1CCN(S(=O)(=O)c2cccs2)CC1 | 9.4
O=C(c1ccc(-c2nc3ccccc3c(=O)[nH]2)cc1)N1CCN(S(=O)(=O)c2ccccc2)CC1 | 32.6
O=C(c1ccc(-c2nc3ccccc3c(=O)[nH]2)cc1)N1CCN(S(=O)(=O)c2cccc3cccnc23)CC1 | 6.3
O=C(c1ccc(-c2nc3ccccc3c(=O)[nH]2)cc1)N1CCN(S(=O)(=O)C2CC2)CC1 | 8.2

input: What value of IC50 has been recorded for this entry: `COc1ccc(S(=O)(=O)N2CCN(C(=O)c3ccc(-c4nc5ccccc5c(=O)n4Cc4ccccc4)cc3)CC2)cc1`
output: 48.1
